Entries annotated with measured inhibition at 0.1 µM
Target: TREK-1 channel (hTREK-1/HEK cells) (Homo sapiens, UniProt O95069)
Construct: expressed in transfected cells
Sequence (O95069 1-426): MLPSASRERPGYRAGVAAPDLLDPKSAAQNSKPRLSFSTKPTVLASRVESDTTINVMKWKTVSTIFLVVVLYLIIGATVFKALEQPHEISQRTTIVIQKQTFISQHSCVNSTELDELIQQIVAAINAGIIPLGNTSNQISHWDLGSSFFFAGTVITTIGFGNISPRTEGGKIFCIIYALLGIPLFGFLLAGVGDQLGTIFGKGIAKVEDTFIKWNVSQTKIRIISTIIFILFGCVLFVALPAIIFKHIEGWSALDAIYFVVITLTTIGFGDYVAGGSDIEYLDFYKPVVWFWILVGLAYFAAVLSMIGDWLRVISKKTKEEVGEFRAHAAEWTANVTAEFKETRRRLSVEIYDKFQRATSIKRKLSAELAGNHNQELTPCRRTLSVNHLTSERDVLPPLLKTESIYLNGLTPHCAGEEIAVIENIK
Test: TREK-1 current inhibition, whole-cell patch-clamp on hTREK-1/HEK cell line
Type: cell-based
Settings: HEK293, peptide 100 nM; TREK-1 first activated with 10 μM arachidonic acid (AA); current density at 0 mV; hTREK-1/HEK cells; mean ± SEM, n = cells; read-out: % of TREK-1 inhibition
Residues, ends and D or L forms follow the SMILES beside them. *: point of attachment. Biotin = O=C1N[C@H]2[C@H](CS[C@H]2CCCCC(=O)*)N1
ATTRIBUTE_MEASURED: inhibition at 0.1 µM (%)

• CC(C)C[C@H](NC(=O)CNC(=O)[C@H](Cc1c[nH]c2ccccc12)NC(=O)[C@H](CO)NC(=O)[C@@H](NC(=O)CNC(=O)CCCC[C@@H]1SC[C@@H]2NC(=O)N[C@@H]21)C(C)C)C(=O)N[C@@H](CCCNC(=N)N)C(=O)O [Biotinylated-PE 22-28] (Biotin-GVSWGLR-OH) = 53
• CC(C)C[C@H](NC(=O)CNC(=O)[C@H](Cc1c[nH]c2ccccc12)NC(=O)[C@H](CO)NC(=O)[C@@H](NC(=O)[C@H](C)NC(=O)CCCC[C@@H]1SC[C@@H]2NC(=O)N[C@@H]21)C(C)C)C(=O)N[C@@H](CCCNC(=N)N)C(=O)O [Biotinylated G/A-PE 22-28] (Biotin-AVSWGLR-OH) = 46.1
• CC[C@H](C)[C@H](NC(=O)[C@@H]1CCCN1C(=O)CNC(=O)[C@H](CO)NC(=O)[C@H](Cc1c[nH]c2ccccc12)NC(=O)[C@H](CCCNC(=N)N)NC(=O)[C@@H]1CCCN1C(=O)[C@H](CC(C)C)NC(=O)[C@@H]1CCCN1C(=O)[C@H](C)N)C(=O)NCC(=O)N[C@H](C(=O)N[C@@H](CO)C(=O)N[C@@H](Cc1c[nH]c2ccccc12)C(=O)NCC(=O)N[C@@H](CC(C)C)C(=O)N[C@@H](CCCNC(=N)N)C(=O)O)C(C)C [PE 12-28 (Spadin), reference compound] (H-APLPRWSGPIGVSWGLR-OH) = 44.4
